test system: DU-145 prostate; assay: NCI-60 one-dose screen, 48 h (100 = growth as untreated, 0 = no growth, -100 = all killed); settings: 10 µM
The panel holds about 83,000 compounds, 20% with a hit somewhere; the sample as a whole holds those more often.
assay.endpoint: growth (%)
The response must be a number in % with no trailing unit.

Q: # lookup: growth of O=C1Cc2cc(O)ccc2O1
A: 118

Q: # lookup: growth of CC1(c2ccccc2)NC(=O)NC1=O (stereo not given)
A: 125

Q: # lookup: growth of CC(=O)OCC1=CC2OC(=O)C3=COC(OC4OC(CO)C(O)C(O)C4O)C1C32 (stereo not given)
A: 114

Q: # lookup: growth of CC1=C(/C=C/C(C)=C/C=C/C(C)=C/CO)C(C)(C)CCC1
A: 112

Q: # lookup: growth of CNc1nc(NC)c2cn[nH]c2n1
A: 113

Where these numbers come from: PubChem BioAssay (NCI)
